Data provenance: patent US20080064714A1

The entries below are paired with their reported melting point.

CCC(=O)c1c(-c2csc3ccccc23)c(C)n2c1-c1cc(OC)c(OC)cc1CC2    181 to 183 °C

Would you kindly share the measured melting point for CCC(=O)c1c(-c2ccc(OC)c(OC)c2F)c(C)n2c1-c1cc(OC)c(OC)cc1CC2 ?
129 to 132 °C

Please do the same for CCC(=O)c1c(-c2ccc(-c3ccccc3)cc2)c(C)n2c1-c1cc(OC)c(OC)cc1CC2 as well.
209 to 211 °C

Please do the same for CCC(=O)c1c(-c2c[nH]c3ccccc23)c(C)n2c1-c1cc(OC)c(OC)cc1CC2 as well.
238 to 240 °C
